system.under.test: HIV-1 YU-2 gp120 (HIV-1 (YU-2), UniProt P35961)
test: SPR
observable: IC50

Here's what some known entries look like.
binder	observable	reading
Fab m18 K31A (LCDR1) (Fab, V domains shown) VH: VQLLESGPGVVKPSETLSLTCTVSGASVNNYYWTWVRQPPGKGLEWIGNVYDSGDTNYNPSLSSRLSLSMDTSKNQFSLRLSSVTAADTATYYCARYHRHFIRGPLSFDYWGRGTLVTVSS VL: LQMTQSPSFLSASVGDRVSITCRASQDIQAFLAWYQLTPGDAPKLLMYSASTLQSGVPSRFSGSGSGTEFTLTISGLQPEDFATYYCQHLKRYPYTFGQGTKLEIS	IC50	> 0.5 µM
Fab m18 S56A (LCDR2) (Fab, V domains shown) VH: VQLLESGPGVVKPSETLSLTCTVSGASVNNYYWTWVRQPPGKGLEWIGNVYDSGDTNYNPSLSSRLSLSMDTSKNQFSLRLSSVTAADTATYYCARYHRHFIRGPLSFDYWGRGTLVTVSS VL: LQMTQSPSFLSASVGDRVSITCRASQDIQKFLAWYQLTPGDAPKLLMYSASTLQAGVPSRFSGSGSGTEFTLTISGLQPEDFATYYCQHLKRYPYTFGQGTKLEIS	IC50	> 0.5 µM

Shifting focus to the binder that follows.
IN: Recorded IC50 for Fab m18 N30A (HCDR1) (Fab, V domains shown) VH: VQLLESGPGVVKPSETLSLTCTVSGASVANYYWTWVRQPPGKGLEWIGNVYDSGDTNYNPSLSSRLSLSMDTSKNQFSLRLSSVTAADTATYYCARYHRHFIRGPLSFDYWGRGTLVTVSS VL: LQMTQSPSFLSASVGDRVSITCRASQDIQKFLAWYQLTPGDAPKLLMYSASTLQSGVPSRFSGSGSGTEFTLTISGLQPEDFATYYCQHLKRYPYTFGQGTKLEIS , please?
OUT: > 1 µM
